TARGET_OR_SYSTEM: Replicase polyprotein 1ab (Severe acute respiratory syndrome coronavirus 2, UniProt P0DTD1)
PROCEDURE_DETAILS: Inhibition of recombinant SARS-CoV-2 PLpro expressed in Escherichia coli BL21 (DE3) using Arg-Leu-Arg-Gly-Gly-AMC as substrate preincubated for 5 mins followed by substrate addition measured after 6 mins by fluorescence based assay
PROPERTY_NAME: IC50 (nM)
Reply numerically in nM, unit not repeated.

# return recorded IC50 for input CC(C)[C@H](NC(=O)[C@H](CCCNC(=N)N)NC(=O)N[C@@H](Cc1ccccc1)C(=O)O)C(=O)N[C@H](C=O)CCCNC(=N)N [ANTIPAIN]
3
